test: Apparent permeability from apical to basolateral side in human Caco2 cells; type: ADME, cell-based; details: Caco-2
endpointLabel: Papp A→B (×10⁻⁶ cm/s)
Field: numeric (×10⁻⁶ cm/s). Do not append units.

Ask: So what's the measured Papp A→B for this one? Cc1ccn2ncnc(N[C@H]3CC[C@H](N(C)C)CC3)c12
Result: 36

* * *

assay: Lipophilicity, log D of the compound at pH 7.4 by shake flask method; type: physicochemical; conditions: buffer
endpointLabel: logD
Provide a numeric answer; units are not to be included.

compoundString	logD
Cn1ccc2ncnc(N[C@H]3CC[C@H](N(C)C)CC3)c21	-0.8
CN(C)[C@H]1CC[C@H](Nc2ncnc3ccn(C4CCOCC4)c23)CC1	-0.6
Cc1ccn2ncnc(N[C@H]3CC[C@H](N(C)C)CC3)c12	0.2
CN(C)[C@H]1CC[C@H](Nc2ncnn3cccc23)CC1	0
CN(C)[C@H]1CC[C@H](Nc2ncnc3cc[nH]c23)CC1	-0.3
CN(C)[C@H]1CC[C@H](Nc2ncnc3ccoc23)CC1	-0.7

Ask: So what's the measured logD for this one? CN(C)[C@H]1CC[C@H](Nc2ncnc3cscc23)CC1
Result: 0.3

Ask: So what's the measured logD for this one? CN(C)[C@H]1CC[C@H](Nc2ncnc3ccsc23)CC1
Result: -0.2

* * *

experiment: Intrinsic clearance in human microsomes assessed per mg protein; format: ADME, Microsome; details: read-out: CLH
endpointLabel: microsomal CLint

compoundString	endpointLabel	experimentalResult
CN(C)[C@H]1CC[C@H](Nc2ncnc3cscc23)CC1	microsomal CLint	39 µL/min/mg

Ask: So what's the measured microsomal CLint for this one? CN(C)[C@H]1CC[C@H](Nc2ncnn3cccc23)CC1
Result: < 3 µL/min/mg

Ask: So what's the measured microsomal CLint for this one? CN(C)[C@H]1CC[C@H](Nc2ncnc3cc[nH]c23)CC1
Result: < 3 µL/min/mg
